These measurements were taken from ChEMBL document CHEMBL4823254.

- system_under_test: Protein deacetylase HDAC6 (Homo sapiens, UniProt Q9UBN7)
- Sequence (Q9UBN7 whole entry): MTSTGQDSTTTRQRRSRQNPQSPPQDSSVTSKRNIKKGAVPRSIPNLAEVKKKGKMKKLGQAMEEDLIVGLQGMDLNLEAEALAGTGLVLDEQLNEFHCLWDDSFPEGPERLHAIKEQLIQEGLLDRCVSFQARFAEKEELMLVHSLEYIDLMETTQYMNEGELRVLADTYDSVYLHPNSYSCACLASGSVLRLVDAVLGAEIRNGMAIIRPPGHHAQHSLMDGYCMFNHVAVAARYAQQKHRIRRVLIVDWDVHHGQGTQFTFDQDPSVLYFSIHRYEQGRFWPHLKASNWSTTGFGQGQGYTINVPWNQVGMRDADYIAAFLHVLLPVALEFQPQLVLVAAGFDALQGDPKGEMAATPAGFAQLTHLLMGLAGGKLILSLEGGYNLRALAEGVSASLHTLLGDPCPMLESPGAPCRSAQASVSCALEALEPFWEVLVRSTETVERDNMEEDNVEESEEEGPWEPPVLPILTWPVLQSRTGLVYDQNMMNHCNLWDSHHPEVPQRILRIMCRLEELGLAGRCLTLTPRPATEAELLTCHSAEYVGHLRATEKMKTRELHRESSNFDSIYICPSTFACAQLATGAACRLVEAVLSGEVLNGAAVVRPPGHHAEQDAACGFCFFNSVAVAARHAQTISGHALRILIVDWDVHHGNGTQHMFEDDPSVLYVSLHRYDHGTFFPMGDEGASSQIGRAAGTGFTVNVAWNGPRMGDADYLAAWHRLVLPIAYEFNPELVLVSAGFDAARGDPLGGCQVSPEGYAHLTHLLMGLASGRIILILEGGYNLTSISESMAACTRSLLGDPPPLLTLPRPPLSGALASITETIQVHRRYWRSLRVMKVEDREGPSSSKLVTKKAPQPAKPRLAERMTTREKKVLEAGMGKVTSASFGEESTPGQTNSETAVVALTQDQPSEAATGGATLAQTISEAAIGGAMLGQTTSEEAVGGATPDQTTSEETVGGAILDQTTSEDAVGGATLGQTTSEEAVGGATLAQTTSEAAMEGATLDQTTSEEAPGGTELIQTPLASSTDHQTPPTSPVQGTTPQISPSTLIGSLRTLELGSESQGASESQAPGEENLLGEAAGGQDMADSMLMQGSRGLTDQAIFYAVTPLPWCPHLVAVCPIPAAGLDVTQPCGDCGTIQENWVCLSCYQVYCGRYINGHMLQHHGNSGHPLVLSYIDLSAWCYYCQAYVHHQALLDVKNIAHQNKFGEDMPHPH
- test_description: Inhibition of HDAC6 in human RPMI-8226 cells assessed as increase in tubulin acetylation incubated for 6 hrs by Western blot analysis
pEC50: −log10 of the molar value.
value_type: pEC50

• NC(=O)c1ccc2c(c1)CCCN2Cc1ccc(C(=O)NO)cc1 = 6.85

====

Collected half-life values appear next to each entry.
- test_description: Half life in CD1 mouse pooled liver microsomes assessed as parent compound remaining measured up to 60 mins in presence of NADPH by LC-MS/MS analysis
- Type: ADME, Microsome
- conditions: CD1, mouse, pooled liver microsomes
value_type: half-life

- CC1(C)CCN(Cc2ccc(C(=O)NO)cc2)c2ccc(Cl)cc21: 15.9 min
- NC(=O)c1ccc2c(c1)CCCN2Cc1ccc(C(=O)NO)cc1: 89.1 min
- N#Cc1ccc2c(c1)CCCCN2Cc1ccc(C(=O)NO)cc1: 196 min
- O=C(NO)c1ccc(CN2CCCc3cc(Cl)c(F)cc32)cc1: 25.7 min
- O=C(NO)c1ccc(CN2C(=O)CCCc3cc(Cl)ccc32)cc1: 110 min
- O=C(NO)c1ccc(CN2CCCCc3ccccc32)cc1: 39.6 min
- O=C(NO)c1ccc(CN2CCCCc3cc(Cl)ccc32)cc1: 60.6 min
- O=C(NO)c1ccc(CN2CCCCc3cc(-c4cc[nH]n4)ccc32)cc1: 18.3 min
- O=C(NO)c1ccc(CN2CCCc3cc(Cl)ccc32)c(F)c1: 24.8 min
- O=C(NO)c1ccc(CN2CCCc3cc(Cl)ccc32)cc1: 31.9 min
- CC1(C)CCc2cc(Cl)ccc2N1Cc1ccc(C(=O)NO)cc1: 25.4 min
- O=C(NO)c1ccc(CN2CCCc3ccccc32)cc1: 40.4 min

====

- system_under_test: UniProt Q13547
- test_description: biochemical
- Sequence (Q13547 whole entry, looked up): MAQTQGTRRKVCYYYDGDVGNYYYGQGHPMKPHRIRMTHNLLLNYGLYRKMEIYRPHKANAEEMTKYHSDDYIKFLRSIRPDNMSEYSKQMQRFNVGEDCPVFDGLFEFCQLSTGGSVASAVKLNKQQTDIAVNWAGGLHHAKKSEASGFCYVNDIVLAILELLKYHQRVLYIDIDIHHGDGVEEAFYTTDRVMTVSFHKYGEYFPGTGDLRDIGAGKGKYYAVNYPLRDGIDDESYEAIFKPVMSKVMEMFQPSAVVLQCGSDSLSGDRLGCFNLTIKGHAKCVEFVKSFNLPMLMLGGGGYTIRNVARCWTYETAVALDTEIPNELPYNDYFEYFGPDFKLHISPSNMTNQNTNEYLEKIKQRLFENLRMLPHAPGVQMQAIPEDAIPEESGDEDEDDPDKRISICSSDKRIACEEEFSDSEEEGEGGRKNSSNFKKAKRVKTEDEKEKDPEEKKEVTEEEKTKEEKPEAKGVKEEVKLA
Rule: measured IC50 below 20 µM gets yes (1); anything equal to or greater than 20 µM gets no (0).

* CC1(C)CCc2cc(F)ccc2N1Cc1ccc(C(=O)NO)cc1 | yes (1)
* CC1(C)CCN(Cc2ccc(C(=O)NO)cc2)c2ccc(F)cc21 | no (0)
* O=C(NO)c1ccc(CN2CCCc3cc(Cl)c(F)cc32)cc1 | yes (1)
* CC(c1ccc(C(=O)NO)cc1)N1CCCc2cc(Cl)ccc21 (stereo not given) | yes (1)
* O=C(NO)c1ccc(CN2CCCc3cc(Cl)c(Cl)cc32)cc1 | yes (1)
* O=C(NO)c1ccc(CN2CCCc3cc(F)c(Cl)cc32)cc1 | yes (1)
* O=C(NO)c1ccc(CN2CCCc3cc(Cl)ccc32)c(F)c1 | no (0)
* O=C(NO)c1ccc(C(=O)N2CCCc3cc(Cl)ccc32)cc1 | yes (1)

====

- test_description: Protein binding in mouse plasma
- Format: ADME, cell-free
- conditions: read-out: PPB (converted)
value_type: fraction unbound

- NC(=O)c1ccc2c(c1)CCCN2Cc1ccc(C(=O)NO)cc1: 0.241

====

- system_under_test: hERG (KCNH2) (Homo sapiens, UniProt Q12809)
- Sequence (Q12809 whole entry): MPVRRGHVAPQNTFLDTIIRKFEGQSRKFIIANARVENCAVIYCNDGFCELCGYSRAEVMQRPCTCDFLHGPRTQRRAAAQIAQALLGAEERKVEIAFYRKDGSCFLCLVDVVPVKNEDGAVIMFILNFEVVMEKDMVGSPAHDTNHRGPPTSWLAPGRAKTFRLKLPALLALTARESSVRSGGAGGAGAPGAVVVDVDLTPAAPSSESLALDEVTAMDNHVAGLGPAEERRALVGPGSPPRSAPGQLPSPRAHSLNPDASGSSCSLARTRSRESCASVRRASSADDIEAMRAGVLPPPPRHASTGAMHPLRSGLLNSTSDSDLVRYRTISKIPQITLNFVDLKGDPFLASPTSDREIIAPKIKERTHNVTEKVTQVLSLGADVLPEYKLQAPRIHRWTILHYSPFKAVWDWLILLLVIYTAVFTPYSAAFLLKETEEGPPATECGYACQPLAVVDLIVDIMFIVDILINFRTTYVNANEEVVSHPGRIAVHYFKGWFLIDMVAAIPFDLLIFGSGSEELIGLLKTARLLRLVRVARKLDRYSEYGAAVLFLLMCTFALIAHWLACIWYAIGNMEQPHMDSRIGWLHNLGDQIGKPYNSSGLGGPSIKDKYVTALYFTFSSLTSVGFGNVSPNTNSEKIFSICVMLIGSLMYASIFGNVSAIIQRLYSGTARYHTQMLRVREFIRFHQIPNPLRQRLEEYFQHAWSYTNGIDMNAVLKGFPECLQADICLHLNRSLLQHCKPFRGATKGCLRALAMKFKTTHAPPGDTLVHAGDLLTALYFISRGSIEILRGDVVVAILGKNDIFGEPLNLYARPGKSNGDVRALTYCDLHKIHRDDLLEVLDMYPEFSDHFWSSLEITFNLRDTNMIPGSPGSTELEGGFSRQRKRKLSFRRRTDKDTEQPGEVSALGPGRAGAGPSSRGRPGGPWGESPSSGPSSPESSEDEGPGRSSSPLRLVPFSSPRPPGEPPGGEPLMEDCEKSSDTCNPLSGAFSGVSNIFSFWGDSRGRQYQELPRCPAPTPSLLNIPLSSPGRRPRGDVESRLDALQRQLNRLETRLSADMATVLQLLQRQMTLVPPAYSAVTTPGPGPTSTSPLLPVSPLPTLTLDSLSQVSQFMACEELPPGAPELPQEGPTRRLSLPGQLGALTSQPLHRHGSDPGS
- test_description: Inhibition of human ERG expressed in CHO cells at 10 uM by automated patch clamp method relative to control
- Format: cell-based
- conditions: CHO cells expressing human ERG
value_type: inhibition at 10 µM (%)

- NC(=O)c1ccc2c(c1)CCCN2Cc1ccc(C(=O)NO)cc1: 30

====

- test_description: Half life in C57BL/6J mouse brain at 15 mg/kg, ip
- Assay type: ADME, organism-based
value_type: half-life (h)

- NC(=O)c1ccc2c(c1)CCCN2Cc1ccc(C(=O)NO)cc1: 2.9

====

Collected pIC50 values appear next to each entry.
- system_under_test: Histone deacetylase 1 (Homo sapiens, UniProt Q13547)
pIC50: −log10 of the molar value.
value_type: pIC50

• NC(=O)c1ccc2c(c1)CCCCN2Cc1ccc(C(=O)NO)cc1 = 6.82
• O=C(NO)c1ccc(CN2CCCCc3ccccc32)cc1 = 5.88
• N#Cc1ccc2c(c1)CCCCN2Cc1ccc(C(=O)NO)cc1 = 6.61
• O=C(NO)c1ccc(CN2C(=O)CCc3cc(Cl)ccc32)cc1 = 6.56
• CCCc1ccc2c(c1)CCC(=O)N2Cc1ccc(C(=O)NO)cc1 = 6.51
• O=C(NO)c1ccc(CN2CCCCc3cc(-c4cc[nH]n4)ccc32)cc1 = 5.97
• N#Cc1ccc2c(c1)CCCN2Cc1ccc(C(=O)NO)cc1 = 6.85
• O=C(NO)c1ccc(CN2CCCCc3cc(Br)ccc32)cc1 = 5.80
• O=C(NO)c1ccc(CN2C(=O)CCc3cc(Br)ccc32)cc1 = 6.97
• O=C(NO)c1ccc(CN2CCCCc3cc(Cl)ccc32)cc1 = 5.72
• O=C(NO)c1ccc(CN2C(=O)CCCc3cc(Cl)ccc32)cc1 = 6.90
• O=C(NO)c1ccc(CN2C(=O)CCc3cc(C4CC4)ccc32)cc1 = 6.93
• NC(=O)c1ccc2c(c1)CCCN2Cc1ccc(C(=O)NO)cc1 = 6.45
• O=C(NO)c1ccc(CN2CCCc3cc(-c4cc[nH]n4)ccc32)cc1 = 6.74

====

- test_description: Stability in CD1 mouse pooled liver microsomes assessed as parent compound remaining measured at 60 mins in presence of NADPH by LC-MS/MS analysis
- Type: ADME, Microsome
- conditions: CD1, mouse, pooled liver microsomes, read-out: Stabilty
Rule: measured remaining at 1 h below 30% gets label 1; anything equal to or greater than 30% gets label 0.

* O=C(NO)c1ccc(CN2CCCCc3cc(-c4cc[nH]n4)ccc32)cc1 | label 1
* CC1(C)CCN(Cc2ccc(C(=O)NO)cc2)c2ccc(Cl)cc21 | label 1
* CC1(C)CCc2cc(Cl)ccc2N1Cc1ccc(C(=O)NO)cc1 | label 1
* O=C(NO)c1ccc(CN2CCCc3cc(Cl)c(F)cc32)cc1 | label 1
* O=C(NO)c1ccc(CN2CCCc3cc(Cl)ccc32)c(F)c1 | label 1
* O=C(NO)c1ccc(CN2C(=O)CCCc3cc(Cl)ccc32)cc1 | label 0
* NC(=O)c1ccc2c(c1)CCCN2Cc1ccc(C(=O)NO)cc1 | label 0
* O=C(NO)c1ccc(CN2CCCc3ccccc32)cc1 | label 0
* O=C(NO)c1ccc(CN2CCCCc3ccccc32)cc1 | label 0
* N#Cc1ccc2c(c1)CCCCN2Cc1ccc(C(=O)NO)cc1 | label 0
* O=C(NO)c1ccc(CN2CCCc3cc(Cl)ccc32)cc1 | label 1
* O=C(NO)c1ccc(CN2CCCCc3cc(Cl)ccc32)cc1 | label 0
